B1: Hairpin Ribozyme (parent)
chain: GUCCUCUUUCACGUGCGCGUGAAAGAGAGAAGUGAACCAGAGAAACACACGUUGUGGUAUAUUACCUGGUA

Variants of: B1
Test: self-cleavage, relative activity (ratio to wild type); higher = more cleavage; co-transcriptional
Quantity kind: self-cleavage

mutation_string="A49U U53C" quantity_kind=self-cleavage recorded_value=0.124
mutation_string="U33A A47G" quantity_kind=self-cleavage recorded_value=0.0897
mutation_string="C16A G21A" quantity_kind=self-cleavage recorded_value=0.67
mutation_string="C16U U53G" quantity_kind=self-cleavage recorded_value=1.05
mutation_string="G13U A71C" quantity_kind=self-cleavage recorded_value=1.22
mutation_string="G15U A23G" quantity_kind=self-cleavage recorded_value=0.87
mutation_string="U14G G69A" quantity_kind=self-cleavage recorded_value=0.303
mutation_string="A30G A61U" quantity_kind=self-cleavage recorded_value=0.153
mutation_string="G27U A35U" quantity_kind=self-cleavage recorded_value=0.203
mutation_string="A41C A44C" quantity_kind=self-cleavage recorded_value=0.0994
mutation_string="A36C G51U" quantity_kind=self-cleavage recorded_value=0.678
mutation_string="G19C C38U" quantity_kind=self-cleavage recorded_value=0.489
mutation_string="C6G G68A" quantity_kind=self-cleavage recorded_value=0.132
mutation_string="C66U U67C" quantity_kind=self-cleavage recorded_value=0.326
mutation_string="U5C C12A" quantity_kind=self-cleavage recorded_value=0.566
mutation_string="C12U C48A" quantity_kind=self-cleavage recorded_value=0.107
mutation_string="U33G U58A" quantity_kind=self-cleavage recorded_value=0.0636
mutation_string="A47G A61C" quantity_kind=self-cleavage recorded_value=0.132
mutation_string="C6G U58A" quantity_kind=self-cleavage recorded_value=0.29
mutation_string="G25C U55A" quantity_kind=self-cleavage recorded_value=0.163
mutation_string="G17U U60G" quantity_kind=self-cleavage recorded_value=0.343
mutation_string="C48G C66A" quantity_kind=self-cleavage recorded_value=0.131
